Listing: aptazyme ON/OFF ratio of selected variants
B1: Pistol ribozyme (parent)
chain: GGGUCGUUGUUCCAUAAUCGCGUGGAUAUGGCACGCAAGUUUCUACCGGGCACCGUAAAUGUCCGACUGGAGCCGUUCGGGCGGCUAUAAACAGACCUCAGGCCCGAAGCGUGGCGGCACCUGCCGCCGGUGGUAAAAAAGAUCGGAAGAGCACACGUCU

Variants of: B1
PROCEDURE_SUMMARY: aptazyme ON/OFF ratio, guanine; higher = stronger switching; co-transcriptional cleavage with and without guanine
Lab note: record the figure alone, no unit after it.

Query: Please look up its aptazyme ON/OFF ratio: U7A G9U U10C C12U
Reply: 1.22

Next:
Query: Please look up its aptazyme ON/OFF ratio: U7G U8C G9A U11C C12U C13A
Reply: 1.15

Query: Try U7C U8C G9C U10A C12A next.
Reply: 1.11

Query: Try U7G U8A G9C U10A U11G C13U next.
Reply: 1.02

Query: Try U7G C12G C13A next.
Reply: 1.08

Query: Try U7A U10C U11G C12U C13G next.
Reply: 1.31

Query: Try G9C C12U C13G next.
Reply: 1.04

Query: Try U7C U10A U11C C12G C13G next.
Reply: 1.31

Query: Try G9A U10A C13G next.
Reply: 1.14

Query: Try U7C U8A G9A U10C U11A C12G C13U next.
Reply: 1.18

Query: Try U8C G9A U10C U11C next.
Reply: 1.25
